target_entity: T1, recombinant human IL-23 (human, UniProt Q9NPF7 20-189; P29460 23-328)
T1 construct: also called rhuIL-23; recombinant human (rhu) IL-23
T1 sequence 1: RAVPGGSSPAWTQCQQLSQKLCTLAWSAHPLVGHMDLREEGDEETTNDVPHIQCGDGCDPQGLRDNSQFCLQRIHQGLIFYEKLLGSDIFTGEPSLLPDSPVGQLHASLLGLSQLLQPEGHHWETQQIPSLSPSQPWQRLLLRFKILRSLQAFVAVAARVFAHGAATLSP
T1 sequence 2: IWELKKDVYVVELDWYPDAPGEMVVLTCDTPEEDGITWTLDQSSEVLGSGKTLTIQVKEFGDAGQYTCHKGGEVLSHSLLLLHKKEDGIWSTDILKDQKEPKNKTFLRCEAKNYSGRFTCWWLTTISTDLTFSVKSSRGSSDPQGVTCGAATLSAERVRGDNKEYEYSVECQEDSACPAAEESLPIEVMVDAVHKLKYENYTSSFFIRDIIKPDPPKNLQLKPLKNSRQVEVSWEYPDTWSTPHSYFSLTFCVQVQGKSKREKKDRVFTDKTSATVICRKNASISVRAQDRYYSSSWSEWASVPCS
assay_explanation: KinExA, derived from KD=Koff/Kon
test_readout: koff (s⁻¹)
Quick reminder: number only, in s⁻¹, skip the unit.

* Antibody G (antibody, V domains shown, also called VH12/VL12) VH: QVQLQESGPRLVKPSETLSLTCTVSGDSISSYFWSWIRQPPGKGLEWLGYIYYSGSTNYNPSLKSRVTISIDTSKNQFSLKLSSVTAADTAVYYCTRDRGSYYGSDYWGQGTLVTVSS VL: DIQMTQSPSSVSASVGDRVTITCRAGQVISSWLAWYQQKPGKAPKLLIYAASSLQSGVPSRFSGSGSGTDFTLTISSLQPDDFATYYCQQATSFPLTFGGGTKVEIK | 8.1e-07

Query: Field request: koff | item: Antibody B (antibody, V domains shown, also called VH9/VL9) VH: QVQLQESGPGLVKPSQTLSLTCTVSGGSISSGGYYWSWIRQHPGKGLEWIGHIHYSGNTYYNPSLKSRVTISVDTSKNQFSLKLSSVTAADTAVYYCAKNRGFYYGMDVWGQGTTVTVSS VL: DIQMTQSPSSVSASVGDRVTITCRASQVISSWLAWYQQKPGKAPSLLIYAASSLQSGVPSRFSGSVSGTDFTLTISSLQPEDFATYYCQQANSFPFTFGPGTKVDFK
Result: 4.7e-06

Query: Same read-out for Antibody L (antibody, V domains shown, also called VH4/VL4) VH: QVQLVESGGGVVQPGRSLRLSCAASGFTFSSYAMHWVRQAPGKGLEWLSVISHDGSIKYYADSVKGRFTISRDNSKNTLYLQMNSLRAEDTAVYYCARERTTLSGSYFDYWGQGTLVTVSS VL: QAVLTQPSSLSASPGASASLTCTLRSGINVGTYRIYWYQQKPGSPPQYLLRYKSDSDKQQGSGVPSRFSGSKDASANAGILLISGLQSEDEADYYCMIWHSSASVFGGGTKLTVL ?
Result: 3.7e-06
